- Tested on: S. cerevisiae growth in glycerol medium, OD600, 48 h
- ASSAY: S. cerevisiae growth inhibition on glycerol, dose response, glycerol medium, plate reader, dry powder, set 4 (AID 624012)
REPORTED_METRIC: AC50

[[record]]
molecule = "CCOC(=O)N1C(=O)C2(CCCCC2)N(c2cccc(C)c2)C1=S"
result = "18.1 nM"

[[record]]
molecule = "CCOC(=O)N1C(=O)C2(CCCCC2)N(c2ccc(F)cc2)C1=S"
result = "3.97 nM"

[[record]]
molecule = "CCOC(=O)N1C(=O)C2(CCCCC2)N(c2ccccc2)C1=S"
result = "14.6 nM"

[[record]]
molecule = "CC1/C=C/C=C\\C=C\\C=C\\C=C\\C=C\\C=C\\C(O[C@H]2OC(C)C(O)C(N)C2O)CC2OC(O)(CC(O)CC(O)C(O)CCC(O)CC(O)CC(=O)OC(C)C(C)C1O)CC(O)C2C(=O)O (some centres not stated)"
result = "274 nM"

[[record]]
molecule = "CCOC(=O)N1C(=O)C2(CCCCC2)N(c2ccc(C#N)cc2)C1=S"
result = "3.65 nM"

[[record]]
molecule = "CCOC(=O)N1C(=O)C2(CCCCC2)N(c2ccc(Cl)cc2)C1=S"
result = "5.77 nM"

[[record]]
molecule = "C/C=C/[C@@H]1[C@H]2C[C@@H](C)CC[C@@H]2C(C)=C[C@H]1C(=O)c1c(O)c(-c2ccc(O)cc2)c[nH]c1=O"
result = "27.5 nM"


The reported numbers originate from PubChem BioAssay AID624012.
